Protocol summary: Elimination rate constant in Wistar rat at 5 mg/kg, iv
Type: ADME, organism-based
Measurement parameters: in vivo
Observed property: k el

>>> result("[2H]/C(c1nc[nH]c1C(C)(C)C)=c1/[nH]c(=O)/c(=C/c2ccccc2)[nH]c1=O")
"0.000139 s⁻¹"
>>> result("CC(C)(C)c1[nH]cnc1/C=c1\\[nH]c(=O)/c(=C/c2ccccc2)[nH]c1=O")
"0.000189 s⁻¹"

---

Protocol summary: Half life in Wistar rat at 5 mg/kg, iv
Format: ADME, organism-based
Measurement parameters: in vivo
Observed property: half-life

>>> result("[2H]/C(c1nc[nH]c1C(C)(C)C)=c1/[nH]c(=O)/c(=C/c2ccccc2)[nH]c1=O")
"1.47 h"
>>> result("CC(C)(C)c1[nH]cnc1/C=c1\\[nH]c(=O)/c(=C/c2ccccc2)[nH]c1=O")
"1.13 h"
